Tested on: HL-60
PROCEDURE_DETAILS: In vitro induction of HL-60 cell differentiation.
Assay type: functional, Homo sapiens
Set-up: reference not given here
Where Potency equals or exceeds 2000, the correct label is satisfied; where it does not, the label is not satisfied.

QUERY_SMILES: C=C1/C(=C\C=C2/CCC[C@]3(C)[C@@H]([C@H](C)CCCC(C)(C)O)CC[C@@H]23)C[C@@H](O)[C@H](CCCCO)[C@@H]1O
ASSIGNED_CATEGORY: not satisfied
//
QUERY_SMILES: C=C1/C(=C\C=C2/CCC[C@]3(C)[C@@H]([C@@H](C)CCCC(C)(C)O)CC[C@@H]23)C[C@@H](O)[C@H](CO)[C@@H]1O
ASSIGNED_CATEGORY: not satisfied
//
QUERY_SMILES: C=C1/C(=C\C=C2/CCC[C@]3(C)[C@@H]([C@H](C)CCCC(C)(C)O)CC[C@@H]23)C[C@@H](O)[C@H](CCCO)[C@@H]1O
ASSIGNED_CATEGORY: not satisfied
//
QUERY_SMILES: C=C1/C(=C\C=C2/CCC[C@]3(C)[C@@H]([C@@H](C)CCCC(C)(C)O)CC[C@@H]23)C[C@@H](O)[C@H](CCC)[C@@H]1O
ASSIGNED_CATEGORY: not satisfied

stdin: Is Potency for `C=C1/C(=C\C=C2/CCC[C@]3(C)[C@@H]([C@@H](C)CCCC(C)(C)O)CC[C@@H]23)C[C@@H](O)[C@H](CCCC)[C@@H]1O` at or above 2000?
stdout: satisfied

###

TARGET_OF_ASSAY: Vitamin D3 receptor (Bos taurus)
PROCEDURE_DETAILS: Binding affinity at bovine thymus Vitamin D3 receptor relative to 1-alpha,25-Dihydroxyvitamin D3.
Output: class label from relative binding affinity (RBA). Mapping: Low (below 70), Medium (70 to below 300), High (300 or more)

Solved cases below.
QUERY_SMILES: C=C1/C(=C\C=C2/CCC[C@]3(C)[C@@H]([C@@H](C)CCCC(C)(C)O)CC[C@@H]23)C[C@@H](O)[C@H](C)[C@@H]1O
ASSIGNED_CATEGORY: High
--
QUERY_SMILES: C=C1/C(=C\C=C2/CCC[C@]3(C)[C@@H]([C@H](C)CCCC(C)(C)O)CC[C@@H]23)C[C@@H](O)C[C@@H]1O
ASSIGNED_CATEGORY: Medium
--
QUERY_SMILES: C=C1/C(=C\C=C2/CCC[C@]3(C)[C@@H]([C@@H](C)CCCC(C)(C)O)CC[C@@H]23)C[C@@H](O)[C@H](CO)[C@@H]1O
ASSIGNED_CATEGORY: Medium
--
QUERY_SMILES: C=C1/C(=C\C=C2/CCC[C@]3(C)[C@@H]([C@@H](C)CCCC(C)(C)O)CC[C@@H]23)C[C@@H](O)[C@H](CCCCO)[C@@H]1O
ASSIGNED_CATEGORY: Medium
--
QUERY_SMILES: C=C1/C(=C\C=C2/CCC[C@]3(C)[C@@H]([C@H](C)CCCC(C)(C)O)CC[C@@H]23)C[C@@H](O)[C@H](CO)[C@@H]1O
ASSIGNED_CATEGORY: Low
--
QUERY_SMILES: C=C1/C(=C\C=C2/CCC[C@]3(C)[C@@H]([C@@H](C)CCCC(C)(C)O)CC[C@@H]23)C[C@@H](O)[C@H](CCCC)[C@@H]1O
ASSIGNED_CATEGORY: Low

stdin: Which bin should I file `C=C1/C(=C\C=C2/CCC[C@]3(C)[C@@H]([C@@H](C)CCCC(C)(C)O)CC[C@@H]23)C[C@@H](O)[C@H](CCC)[C@@H]1O` under?
stdout: Medium

stdin: Which bin should I file `C=C1/C(=C\C=C2/CCC[C@]3(C)[C@@H]([C@@H](C)CCCC(C)(C)O)CC[C@@H]23)C[C@@H](O)[C@H](CCO)[C@@H]1O` under?
stdout: High

stdin: Which bin should I file `C=C1/C(=C\C=C2/CCC[C@]3(C)[C@@H]([C@@H](C)CCCC(C)(C)O)CC[C@@H]23)C[C@@H](O)C[C@@H]1O` under?
stdout: High

stdin: Which bin should I file `C=C1/C(=C\C=C2/CCC[C@]3(C)[C@@H]([C@@H](C)CCCC(C)(C)O)CC[C@@H]23)C[C@@H](O)[C@H](CCCO)[C@@H]1O` under?
stdout: High

stdin: Which bin should I file `C=C1/C(=C\C=C2/CCC[C@]3(C)[C@@H]([C@H](C)CCCC(C)(C)O)CC[C@@H]23)C[C@@H](O)[C@H](CC)[C@@H]1O` under?
stdout: Low

stdin: Which bin should I file `C=C1/C(=C\C=C2/CCC[C@]3(C)[C@@H]([C@H](C)CCCC(C)(C)O)CC[C@@H]23)C[C@@H](O)[C@H](CCC)[C@@H]1O` under?
stdout: Low

stdin: Which bin should I file `C=C1/C(=C\C=C2/CCC[C@]3(C)[C@@H]([C@H](C)CCCC(C)(C)O)CC[C@@H]23)C[C@@H](O)[C@H](C)[C@@H]1O` under?
stdout: High

stdin: Which bin should I file `C=C1/C(=C\C=C2/CCC[C@]3(C)[C@@H]([C@H](C)CCCC(C)(C)O)CC[C@@H]23)C[C@@H](O)[C@H](CCCC)[C@@H]1O` under?
stdout: Low

stdin: Which bin should I file `C=C1/C(=C\C=C2/CCC[C@]3(C)[C@@H]([C@H](C)CCCC(C)(C)O)CC[C@@H]23)C[C@@H](O)[C@H](CCCCO)[C@@H]1O` under?
stdout: Medium

stdin: Which bin should I file `C=C1/C(=C\C=C2/CCC[C@]3(C)[C@@H]([C@@H](C)CCCC(C)(C)O)CC[C@@H]23)C[C@@H](O)[C@H](CC)[C@@H]1O` under?
stdout: Medium

###

System: HL-60
PROCEDURE_DETAILS: In vitro induction of HL-60 cell differentiation.
Format: functional, Homo sapiens
Design: reference not given here
Label key: met means Potency under 4000; not met means Potency of 4000 or more.

Solved cases below.
QUERY_SMILES: C=C1/C(=C\C=C2/CCC[C@]3(C)[C@@H]([C@H](C)CCCC(C)(C)O)CC[C@@H]23)C[C@@H](O)[C@H](C)[C@@H]1O
ASSIGNED_CATEGORY: met
--
QUERY_SMILES: C=C1/C(=C\C=C2/CCC[C@]3(C)[C@@H]([C@H](C)CCCC(C)(C)O)CC[C@@H]23)C[C@@H](O)[C@H](CCC)[C@@H]1O
ASSIGNED_CATEGORY: met
--
QUERY_SMILES: C=C1/C(=C\C=C2/CCC[C@]3(C)[C@@H]([C@H](C)CCCC(C)(C)O)CC[C@@H]23)C[C@@H](O)[C@H](CCCC)[C@@H]1O
ASSIGNED_CATEGORY: met
--
QUERY_SMILES: C=C1/C(=C\C=C2/CCC[C@]3(C)[C@@H]([C@H](C)CCCC(C)(C)O)CC[C@@H]23)C[C@@H](O)C[C@@H]1O
ASSIGNED_CATEGORY: met
--
QUERY_SMILES: C=C1/C(=C\C=C2/CCC[C@]3(C)[C@@H]([C@H](C)CCCC(C)(C)O)CC[C@@H]23)C[C@@H](O)[C@H](CC)[C@@H]1O
ASSIGNED_CATEGORY: met

stdin: Field: below-cutoff. Rule: recorded Potency strictly less than 4000. Subject: `C=C1/C(=C\C=C2/CCC[C@]3(C)[C@@H]([C@H](C)CCCC(C)(C)O)CC[C@@H]23)C[C@@H](O)[C@H](CO)[C@@H]1O`
stdout: met

stdin: Field: below-cutoff. Rule: recorded Potency strictly less than 4000. Subject: `C=C1/C(=C\C=C2/CCC[C@]3(C)[C@@H]([C@@H](C)CCCC(C)(C)O)CC[C@@H]23)C[C@@H](O)C[C@@H]1O`
stdout: met

stdin: Field: below-cutoff. Rule: recorded Potency strictly less than 4000. Subject: `C=C1/C(=C\C=C2/CCC[C@]3(C)[C@@H]([C@@H](C)CCCC(C)(C)O)CC[C@@H]23)C[C@@H](O)[C@H](CC)[C@@H]1O`
stdout: not met

stdin: Field: below-cutoff. Rule: recorded Potency strictly less than 4000. Subject: `C=C1/C(=C\C=C2/CCC[C@]3(C)[C@@H]([C@H](C)CCCC(C)(C)O)CC[C@@H]23)C[C@@H](O)[C@H](CCO)[C@@H]1O`
stdout: met

stdin: Field: below-cutoff. Rule: recorded Potency strictly less than 4000. Subject: `C=C1/C(=C\C=C2/CCC[C@]3(C)[C@@H]([C@@H](C)CCCC(C)(C)O)CC[C@@H]23)C[C@@H](O)[C@H](CCCO)[C@@H]1O`
stdout: not met

stdin: Field: below-cutoff. Rule: recorded Potency strictly less than 4000. Subject: `C=C1/C(=C\C=C2/CCC[C@]3(C)[C@@H]([C@@H](C)CCCC(C)(C)O)CC[C@@H]23)C[C@@H](O)[C@H](C)[C@@H]1O`
stdout: not met

Data provenance is ChEMBL document CHEMBL1136290.
